- Test system: NCI/ADR-RES ovarian
- Test description: NCI-60 one-dose screen, 48 h
- Run conditions: 10 µM unless noted
Compounds without any hit were thinned out: in the full panel of roughly 83,000, 20% have a hit. Active and inactive are the calls of the source. The calls were made as follows: active = growth percent below 10; inactive = the rest.
Outcome field: choose from active, inactive

Below, 5 compounds whose answers are already recorded.
Input smiles	Assigned category
COC(=O)[C@]12CC[C@@H](C)[C@H](C)[C@@H]1C1=CC(=O)[C@@H]3[C@@]4(C)C[C@@H](OC(C)=O)[C@H](OC(C)=O)[C@@](C)(COC(C)=O)[C@@H]4C(=O)C[C@@]3(C)[C@]1(C)CC2	inactive
COc1ccc(C(=O)c2ccc(C)cc2)c(OC)c1OC	inactive
O=[N+]([O-])c1ccc(/C=N\Nc2ccccc2)cc1	inactive
O=C1CCCC=CC[C@H]2C=C(Cl)C(=O)C2=CC[C@H](CCCCC(F)(F)F)OC(=O)CCCC=CC[C@H]2C=C(Cl)C(=O)C2=CC[C@H](CCCCC(F)(F)F)OC(=O)CCCC=CC[C@H]2C=C(Cl)C(=O)C2=CC[C@H](CCCCC(F)(F)F)O1	inactive
Cn1cc(-c2csc(-c3cn(CCCN4CCCCC4)c4ccc(F)cc34)n2)c2cccnc21	inactive

Q) Per the assay record, what outcome was assigned to `C#Cc1cc2c(N)c(C(=O)c3cc(OC)c(OC)c(OC)c3)[nH]c2cc1OC` ?
A) inactive

Q) Per the assay record, what outcome was assigned to `COC(=O)[C@]12CC[C@@H](C)[C@H](C)[C@@H]1C1=CC[C@@H]3[C@@]4(C)C[C@@H](OC(C)=O)[C@H](O)[C@@](C)(COC(C)=O)[C@@H]4[C@H](O)C[C@@]3(C)[C@]1(C)CC2` ?
A) active
